TGI values for the compounds below.
test system: SF-539 CNS; assay: NCI tumour cell line growth inhibition, 48 h
Metric name: TGI (µM)

>>> data_value("CC1=C(N(C)C)C(=O)c2nc3n(c2C1=O)CCC3OC(N)=O (centres undefined)")
31.8
>>> data_value("COc1ccc(/C(Cl)=C(\\C=O)c2cc(OC)c(OC)c(OC)c2)cc1OC")
87.9
>>> data_value("COc1ccc2c(c1)C(=O)c1c-2c(N2CCN(C(=O)CN(C)C)CC2)nc2ccccc12")
30.3
>>> data_value("c1ccc2c(NCCCCCCCCNc3cccc4ccccc34)cccc2c1")
72.2
>>> data_value("C=C1C(=O)O[C@H]2[C@H]1CC/C(COC(=O)NCCc1c[nH]c3ccccc13)=C\\CC[C@@]1(C)O[C@@H]21")
3.29

====

tested on: UO-31 renal; experiment: NCI tumour cell line growth inhibition, 48 h
Metric name: TGI

>>> data_value("CC(=O)Oc1cc2c(=O)oc3c(OC(C)=O)c(OC(C)=O)c(OC(C)=O)c4c(=O)oc(c1OC(C)=O)c2c34")
"> 100 µM"
>>> data_value("N#Cc1c(SCc2ccccc2)nc2[nH]c(=S)[nH]c(=S)c2c1-c1ccco1")
"> 100 µM"
>>> data_value("C[C@@H](Oc1cc(-c2cnn(C3CC4(CCNCC4)C3)c2)cnc1N)c1c(F)ccc(Cl)c1Cl")
"4.28 µM"
>>> data_value("CNC(=O)c1ccc(Nc2nc(OC3CCCC3)c3c(-c4ccc5nc(C)oc5c4)c[nH]c3n2)c(OC)c1")
"> 100 µM"

====

tested on: UACC-257 melanoma; assay: NCI tumour cell line growth inhibition, 48 h
// reported TGI per item
Metric name: TGI

>>> data_value("Cc1cc2c(cc1Cl)SC(NNC(=O)c1ccncc1)=NS2(=O)=O")
"> 10 µM"
>>> data_value("COc1ccc(/C(Cl)=C(\\C=O)c2cc(OC)c(OC)c(OC)c2)cc1OC")
"> 100 µM"
>>> data_value("S=C(NCCCCCCNC(=S)Nc1c2ccccc2nc2ccccc12)Nc1c2ccccc2nc2ccccc12")
"> 100 µM"
>>> data_value("COc1ccc(-c2cc(=O)c3c(O)c(OC)c(O)cc3o2)cc1O")
"> 100 µM"
>>> data_value("CC1=C(C#N)C(=O)N(/N=C/c2ccc(Cl)cc2)C(=O)/C1=c1\\o/c(=C2/C(=O)N(/N=C/c3ccc(Cl)cc3)C(=O)C(C#N)=C2C)c2nccnc12")
"> 100 µM"
>>> data_value("Cc1nc(Nc2ccccc2)sc1C(=O)NNC(N)=O")
"71.6 µM"
>>> data_value("C=C1C(=O)O[C@H]2[C@H]1CC/C(COC(=O)N[C@@H](Cc1c[nH]c3ccccc13)C(=O)OC)=C\\CC[C@@]1(C)O[C@@H]21")
"3.97 µM"
>>> data_value("COc1ccc(OC)c2c(=O)cc(-c3ccccc3)[nH]c12")
"> 100 µM"
>>> data_value("O=C(Nc1ccc(N=Nc2ccccc2)cc1)Sc1ccccc1C(=O)O")
"> 100 µM"
>>> data_value("CC1=Cc2cc3[n-]c(cc4nc(cc5[n-]c(cc1n2)c(C)c5CCC(=O)O)C(CCC(=O)O)=C4C)cc3C.[Cu+2]")
"> 85.4 µM"
>>> data_value("CCN(CC)CCCN1C(=O)c2c(c(C)c3c(oc4cc(O)ccc43)c2C)C1=O")
"3.62 µM"
>>> data_value("COc1ccc2cc(CNCCCN3CCN(CCCNCc4ccc5cc(OC)ccc5c4)CC3)ccc2c1")
"3.86 µM"
>>> data_value("Cc1ncc([N+](=O)[O-])n1CC(O)Cn1cnc([N+](=O)[O-])n1 (configuration not stated)")
"> 100 µM"
>>> data_value("C/C(=C\\c1csc(C)n1)[C@@H]1C[C@@H]2O[C@]2(C)CCC[C@H](C)[C@H](O)[C@@H](C)C(=O)C(C)(C)[C@@H](O)CC(=O)O1 (tested in a mixture with another compound)")
"> 1 µM"
>>> data_value("c1cncc(-c2cc(-c3cc(-c4cccnc4)n[nH]3)[nH]n2)c1")
"> 100 µM"
>>> data_value("C=C1C(=O)O[C@H]2[C@H]1CC/C(COC(=O)NCCc1c[nH]c3ccccc13)=C\\CC[C@@]1(C)O[C@@H]21")
"4.83 µM"
>>> data_value("c1ccc2c(c1)n1c(N3CCOCC3)[n+]3ccccc3c1c1c3cccc[n+]3c(N3CCOCC3)n21")
"> 100 µM"
>>> data_value("Cc1cc(Nc2ncc(Cl)c(Nc3ccccc3S(=O)(=O)C(C)C)n2)c(OC(C)C)cc1C1CCNCC1")
"2.81 µM"
>>> data_value("COc1cc(C(=O)O)ccc1NC(=O)[C@@H]1N[C@@H](CC(C)(C)C)[C@](C#N)(c2ccc(Cl)cc2F)[C@H]1c1cccc(Cl)c1F")
"1.83 µM"
>>> data_value("COc1cc(-c2ccc(-[n+]3nc(-c4ccc([N+](=O)[O-])cc4)nn3-c3ccc([N+](=O)[O-])cc3)c(OC)c2)ccc1-[n+]1nc(-c2ccc([N+](=O)[O-])cc2)nn1-c1ccc([N+](=O)[O-])cc1")
"12 µM"
>>> data_value("CC(C)CC(=O)OC[n+]1cccc(-c2c(COC(=O)NC(C)C)c(COC(=O)NC(C)C)c3n2CCC3)c1")
"> 100 µM"
>>> data_value("CCCN1C(=O)/C(=C/c2ccc(O)cc2)SC1=Nc1ccccc1")
"> 100 µM"
>>> data_value("C=CCOCCCC(=O)C(=[N+]=[N-])C(=O)OC")
"> 100 µM"
>>> data_value("COc1ccc2c(c1)/C(=C/c1c(-c3ccc(C)cc3)nc3sc(C)cn13)C(=O)N2")
"57.1 µM"
>>> data_value("CC[N+](CC)(CC)Cc1cn(S(=O)(=O)c2ccccc2)c2ccccc12")
"> 100 µM"
>>> data_value("O[C@H]1[C@H]2[C@H](O)CCCN2C[C@H]1O")
"> 100 µM"
>>> data_value("O=C(/C=C(\\O)C(=O)O)/C=C(\\O)c1ccccc1Cl")
"> 100 µM"
>>> data_value("CC(C)C1=CC(=O)C(C)(C2=NC(C)(C)CO2)c2ccccc21 (configuration not stated)")
"> 100 µM"
>>> data_value("CO/C=C/c1cc2c(cc1C(OC)OC)OCO2")
"> 100 µM"
>>> data_value("Fc1ccc(Nc2ccc3cc(OCCCN4CCOCC4)ccc3n2)cc1F")
"6.88 µM"
>>> data_value("COc1ccccc1NC(=S)Nc1cccc(C)n1")
"> 100 µM"
>>> data_value("CC1=C/C(=N\\N(C)C)C(C(O)(C(F)(F)F)C(F)(F)F)C(C)(C)C1 (configuration not stated)")
"> 100 µM"
>>> data_value("CN(C)c1cccc(-c2cc(=O)c3cc4c(cc3[nH]2)OCO4)c1")
"> 100 µM"
>>> data_value("CC(=O)C1=C(O)C2(O)C(=O)c3c(c(C)c4ccc(C)c(O)c4c3O)CC2C(N)C1=O (configuration not stated)")
"11.9 µM"
>>> data_value("OC1OC(c2ccc[nH]2)C(F)(F)C(F)(F)C1(F)F (configuration not stated)")
"> 100 µM"
>>> data_value("COC1=CC(C)C2C[C@H]3O[C@H](O)C[C@H]4C(C)C(=O)C(O)C([C@@]2(C)C1=O)[C@@]34C (some centres not stated)")
"> 100 µM"
>>> data_value("Nc1ccccc1C(=O)NNC(=O)c1ccccc1N")
"> 100 µM"

====

test system: SK-MEL-28 melanoma; experiment: NCI tumour cell line growth inhibition, 48 h
TGI reference
Metric name: TGI

>>> data_value("CCn1cc(C(=O)O)c(=O)c2cc(F)c(N3CCN(Cn4c(O)c(N=NC(=O)c5ccncc5)c5cc(Cl)ccc54)CC3)cc21")
"> 100 µM"
>>> data_value("O=c1c2c([nH]c3nccn13)CCCC2")
"> 10 µM"
>>> data_value("COc1cc(/C=C2\\C[C@H]3[C@@H]4CC=C5C[C@@H](OC(C)=O)CC[C@]5(C)[C@H]4CC[C@]3(C)[C@H]2OC(C)=O)ccc1OCCCn1ccnc1")
"> 50 µM"
>>> data_value("CCN(CC)CCCN1C(=O)c2c(c(C)c3c(oc4cc(O)ccc43)c2C)C1=O")
"3.4 µM"

====

tested on: SN12C renal; test: NCI tumour cell line growth inhibition, 48 h
*1 amine or outer side, *2 acyl side, *3 side chain or, on linkers, in order; H or OH if unused. Where a SMILES comes first, the peptide text is derived from it. CO = O=C([*:1])[*:2]
Metric name: GI50

>>> data_value("COc1cc(N)ccc1Nc1c2ccccc2nc2ccccc12")
"7730 nM"
>>> data_value("Fc1ccc(Nc2ccc3cc(OCCCN4CCOCC4)ccc3n2)cc1F")
"9770 nM"
>>> data_value("O=C(Nc1nc(-c2ccc(Cl)cc2)cs1)c1ccc(O)c(O)c1")
"3670 nM"
>>> data_value("CC1=C([Se]CC(OC(=O)[C@@H](CSSC(C)(C)C)NC(=O)C(C)(C)C)C(=O)NCCCCCC(=O)OCc2ccccc2)C(=O)c2ccccc2C1=O (some centres undefined)")
"2000 nM"
>>> data_value("CCCCCCCCO/N=C\\c1c2c(O)c3c(O)c(C)c4c(c3c1O)C(=O)C(C)(O/C=C\\C(OC)C(C)C(OC(C)=O)C(C)C(O)C(C)C(O)C(C)/C=C\\C=C(\\C)C(=O)N2)O4 (centres undefined)")
"2390 nM"
>>> data_value("O=[N+]([O-])c1ccccc1/C=C/C=C1c2ccccc2-c2ccccc21")
"> 100000 nM"
>>> data_value("O=C(Nc1cccc(-c2nc3ccccc3[nH]2)c1)c1cccc(NC(=O)c2ccco2)c1")
"2070 nM"
>>> data_value("CN(C)c1ccc2[nH]c(O)c(C=Nc3ccc(S(N)(=O)=O)cc3)c2c1")
"> 25000 nM"
>>> data_value("Nc1c(C(=O)Nc2cccc3ccccc23)sc2nc3c(cc12)CCCCC3")
"2260 nM"
>>> data_value("CCN(CC)CCCC(C)N/C(c1cccc(OC)c1)=c1\\c(=O)[nH]n(-c2c3ccccc3nc3ccccc23)c(=O)\\c1=C(/NC(C)CCCN(CC)CC)c1cccc(OC)c1 (centres undefined)")
"1740 nM"
>>> data_value("CC(=O)[CH-]C(C)=O.CC(=O)[CH-]C(C)=O.CC(=O)[CH-]C(C)=O.[Cl-].[Hf+4]")
"> 100000 nM"
>>> data_value("Cc1cc(S(=O)(=O)/N=C(\\N)n2nc(C)c(C)c2C)c(SCc2ccccc2)cc1Cl")
"> 100000 nM"
>>> data_value("C[C@@H](Oc1cc(-c2cnn(C3CC4(CCNCC4)C3)c2)cnc1N)c1c(F)ccc(Cl)c1Cl")
"1490 nM"
>>> data_value("CN1CCN(Cc2ccc(NC(=O)c3[nH]ncc3Nc3ccnc4ccsc34)cc2)CC1")
"2780 nM"
>>> data_value("CC(C)C(NC(=O)C(CCCN=C(N)N)NC(=O)NC(Cc1ccccc1)C(=O)O)C(=O)NC(C=O)CCCN=C(N)N (stereo not drawn) ({Phe-CO}-Arg-Val-Arg-aldehyde; configuration not given here)")
"> 5000 nM"
>>> data_value("COc1cc(-c2ccc(-[n+]3nc(-c4ccc([N+](=O)[O-])cc4)nn3-c3ccc([N+](=O)[O-])cc3)c(OC)c2)ccc1-[n+]1nc(-c2ccc([N+](=O)[O-])cc2)nn1-c1ccc([N+](=O)[O-])cc1")
"7050 nM"
>>> data_value("CCOC(=O)c1ccc2[nH]c(Cc3[nH]c4ccc(C(=O)OCC)cc4c3C)c(C)c2c1")
"4920 nM"
>>> data_value("Cc1cc(Nc2ncc(Cl)c(Nc3ccccc3S(=O)(=O)C(C)C)n2)c(OC(C)C)cc1C1CCNCC1")
"1760 nM"
>>> data_value("CCN(CC)CCCN1C(=O)c2c(c(C)c3c(oc4cc(O)ccc43)c2C)C1=O")
"1810 nM"
